Overview of reported Foxtail, Giant plant response rating across a group of molecules:
# Tested on: foxtail, giant (giant foxtail, Setaria faberii)
# procedure_text: Test C postemergence, plant response rating
# Assay type: in vivo
# condition_notes: 62 g ai/ha, scale 0 to 100 (0 no effect, 100 complete control)
# print the numeric value only

1) CCCC(=O)c1c(Oc2ncc(Cl)cn2)cccc1C(F)(F)F; 10
2) O=C(CCC(F)(F)C(F)(F)F)c1c(Br)cccc1Oc1ncc(Cl)cn1; 25
3) FC(F)(F)CCCCc1c(Br)cccc1Oc1ncc(Cl)cn1; 30
4) N#CCCOC(=O)c1c(Br)cccc1Oc1ncc(Cl)cn1; 10
5) CCCCC(=O)c1c(Br)cccc1Oc1ncc(Cl)cn1; 25

stdin: Entry under review: `O=C(CCCC(F)(F)F)c1c(Br)cccc1Oc1ncc(Cl)cn1` . Reported Foxtail, Giant plant response rating?
stdout: 25

stdin: Entry under review: `N#Cc1cccc(Oc2ncc(Cl)cn2)c1CCCC(F)(F)F` . Reported Foxtail, Giant plant response rating?
stdout: 20

---

# Test system: buckwheat, wild (wild buckwheat, Polygonum convolvulus)
# procedure_text: Test C postemergence, plant response rating
# Format: in vivo
# condition_notes: 16 g ai/ha, scale of 0 to 100
outcome_measure: Plant response rating, Buckwheat, Wild

1. O=C(CCCC(F)(F)F)c1c(Oc2ncc(Cl)cn2)cccc1C(F)(F)F [Compound 125]; 70
2. FC(F)(F)CCCCc1c(Cl)cccc1Oc1ncc(Cl)cn1 [Compound 137]; 70
3. O=C(CCC(F)(F)C(F)(F)F)c1c(Br)cccc1Oc1ncc(Cl)cn1 [Compound 110]; 85
4. O=C(CCCCC(F)(F)F)c1c(Br)cccc1Oc1ncc(Cl)cn1 [Compound 82]; 80

stdin: Entry under review: N#Cc1cccc(Oc2ncc(Cl)cn2)c1COCCC(F)(F)F [Compound 80] . Reported Plant response rating, Buckwheat, Wild?
stdout: 70

---

# System: barnyardgrass (Echinochloa crus-galli)
# procedure_text: Test A postemergence, visual injury rating
# Assay type: in vivo
# condition_notes: 500 g ai/ha, 0 is no effect, 100 is complete control
outcome_measure: Barnyardgrass plant response rating (0 to 100 scale)
# print the numeric value only

Some compounds with known Barnyardgrass plant response rating (0 to 100 scale) results, for comparison:
1) C=C(Br)COC(=O)c1c(Br)cccc1Oc1ncc(Cl)cn1; 100
2) O=C(OCCCC(F)(F)F)c1c(Oc2ncc(Cl)cn2)cccc1C(F)(F)F; 70
3) N#CCOC(=O)c1c(Br)cccc1Oc1ncc(Cl)cn1; 20

Shift focus to the following entry.
stdin: Entry under review: `CCCC(=O)c1c(Br)cccc1Oc1ncc(Cl)cn1` . Reported Barnyardgrass plant response rating (0 to 100 scale)?
stdout: 100

---

# System: pigweed (Amaranthus retroflexus)
# procedure_text: Test A preemergence, visual injury rating
# Assay type: in vivo
# condition_notes: 125 g ai/ha, 0 to 100 scale (0 no effect, 100 complete control)
outcome_measure: Plant response rating, Pigweed
# print the numeric value only

Some compounds with known Plant response rating, Pigweed results, for comparison:
1) CC(=NOC(C)C)c1c(Br)cccc1Oc1ncc(Cl)cn1; 20
2) CC(C)Oc1cccc(Oc2ncc(Cl)cn2)c1C(=O)OCCC(F)(F)F; 0
3) Cc1cccc(Oc2ncc(Cl)cn2)c1C(=O)OCCC(F)(F)F; 90

stdin: Entry under review: `FC(F)(F)CCCCc1c(Oc2ncc(Cl)cn2)cccc1C1CC1` . Reported Plant response rating, Pigweed?
stdout: 20

All figures here come from patent US11053204B2.
